system: UniProt:P08659
Sequence (P08659 whole entry): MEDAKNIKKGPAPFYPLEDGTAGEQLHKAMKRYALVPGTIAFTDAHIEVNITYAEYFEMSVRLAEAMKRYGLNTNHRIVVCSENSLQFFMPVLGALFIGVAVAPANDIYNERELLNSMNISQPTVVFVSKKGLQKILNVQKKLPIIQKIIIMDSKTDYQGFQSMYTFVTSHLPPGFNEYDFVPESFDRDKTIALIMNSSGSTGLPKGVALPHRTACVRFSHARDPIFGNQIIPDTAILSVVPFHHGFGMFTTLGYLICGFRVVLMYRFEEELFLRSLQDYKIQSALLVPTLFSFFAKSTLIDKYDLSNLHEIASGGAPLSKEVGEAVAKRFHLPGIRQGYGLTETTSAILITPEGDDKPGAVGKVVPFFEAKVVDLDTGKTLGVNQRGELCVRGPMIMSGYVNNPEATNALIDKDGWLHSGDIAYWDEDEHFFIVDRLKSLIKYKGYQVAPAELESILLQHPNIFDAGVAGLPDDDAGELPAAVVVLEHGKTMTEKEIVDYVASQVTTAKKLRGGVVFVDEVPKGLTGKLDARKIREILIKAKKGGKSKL
assayDetails: firefly luciferase enzyme inhibitors, dose response, biochemical, luminescence (AID 1891)
Activity calls are given as the source filed them. Rule as the data show it: actives have a measured EC50 and inactives only a lower limit.
Field: EC50. Provide a value for each of the molecules that follow.

Here is how some molecules turned out for EC50.
>>> print(df.to_string())
                                   molecule          system               obsvalue
0  COc1ccc(NC(=O)c2cc(S(=O)(=O)N3CCOCC3)cn2C)c(OC)c1  UniProt:P08659  > 112 µM (not active)
1  CCNc1nc(Oc2ccc(=O)n(-c3ccccc3)n2)nc(N(C)C)n1  UniProt:P08659  > 112 µM (not active)
2  COc1ccc([N+](=O)[O-])cc1C1NN=C(c2cccc3ccccc23)S1 (centres undefined)  UniProt:P08659  > 112 µM (not active)
3      COc1cc(SC)ccc1C(=O)Nc1nc2ccccc2[nH]1  UniProt:P08659      0.152 µM (active)

Please give EC50, item by item, for the list that follows.
1. COc1ccc(C2CC(=O)N3CN(c4ccc(C)c(Cl)c4)CSC3=C2C#N)cc1OC (centres undefined)
2. CCCCn1c(CCC(=O)O)ccc1-c1cccs1
3. COc1cccc(-c2nc(-c3ccc(C(=O)O)cc3)no2)c1
4. Cn1cc(SCC(=O)Nc2nc3ccccc3s2)c2ccccc21
5. Cc1cccc(OCc2nnc(SCC(=O)Nc3ncc(C)s3)o2)c1

1: > 112 µM (not active); 2: > 112 µM (not active); 3: 0.794 µM (active); 4: > 112 µM (not active); 5: > 112 µM (not active)
